assay info: Plasma lysine response after liquid lysine drench
Type: in vivo, bovines
details: cattle (bovine), oral, 60 g, Cow 1, 60-gram dose, 600 minutes, read-out: Cow 1, plasma lysine
property name: concentration at 600 min (ng/mL)
Unit ng/mL implied. Number only.

Query :: Given the compound `NCCCC[C@H](N)C(=O)O` , what is its reported concentration at 600 min?
Result :: 15400

====

assay info: Plasma lysine response after liquid lysine drench
Format: in vivo, bovines
details: cattle (bovine), oral, 60 g, Cow 2, 60-gram dose, 80 minutes, read-out: Cow 2, plasma lysine
property name: concentration at 80 min (ng/mL)
Unit ng/mL implied. Number only.

Query :: Given the molecule `NCCCC[C@H](N)C(=O)O` , what is its reported concentration at 80 min?
Result :: 10800

====

assay info: Plasma lysine response after liquid lysine drench
Assay type: in vivo, bovines
details: cattle (bovine), oral, 60 g, Cow 2, 60-gram dose, 540 minutes, read-out: Cow 2, plasma lysine
property name: concentration at 540 min (ng/mL)
Unit ng/mL implied. Number only.

Query :: Given the compound `NCCCC[C@H](N)C(=O)O` , what is its reported concentration at 540 min?
Result :: 17000

====

assay info: Plasma lysine response after liquid lysine drench
Assay type: in vivo, bovines
details: cattle (bovine), oral, 60 g, Cow 2, 60-gram dose, 24 hours, read-out: Cow 2, plasma lysine
property name: concentration at 24 h (ng/mL)
Unit ng/mL implied. Number only.

Query :: Given the molecule NCCCC[C@H](N)C(=O)O [liquid lysine, lysine] , what is its reported concentration at 24 h?
Result :: 12000

====

assay info: Plasma lysine response after liquid lysine drench
Assay type: in vivo, bovines
details: cattle (bovine), oral, 60 g, Cow 2, 60-gram dose, 420 minutes, read-out: Cow 2, plasma lysine
property name: concentration at 420 min (ng/mL)
Unit ng/mL implied. Number only.

Query :: Given the molecule `NCCCC[C@H](N)C(=O)O` , what is its reported concentration at 420 min?
Result :: 24200

====

assay info: Plasma lysine response after liquid lysine drench
Type: in vivo, bovines
details: cattle (bovine), oral, 60 g, Cow 2, 60-gram dose, 148 minutes (so in the source), read-out: Cow 2, plasma lysine
property name: concentration at 148 min (ng/mL)
Unit ng/mL implied. Number only.

Query :: Given the compound `NCCCC[C@H](N)C(=O)O` , what is its reported concentration at 148 min?
Result :: 20000

====

assay info: Plasma lysine response after liquid lysine drench
Type: in vivo, bovines
details: cattle (bovine), oral, 60 g, Cow 2, 60-gram dose, 360 minutes, read-out: Cow 2, plasma lysine
property name: concentration at 360 min (ng/mL)
Unit ng/mL implied. Number only.

Query :: Given the compound `NCCCC[C@H](N)C(=O)O` , what is its reported concentration at 360 min?
Result :: 24200

====

assay info: Plasma lysine response after liquid lysine drench
Assay type: in vivo, bovines
details: cattle (bovine), oral, 60 g, Cow 1, 60-gram dose, 24 hours, read-out: Cow 1, plasma lysine
property name: concentration at 24 h (ng/mL)
Unit ng/mL implied. Number only.

Query :: Given the compound `NCCCC[C@H](N)C(=O)O` , what is its reported concentration at 24 h?
Result :: 14400

====

assay info: Plasma lysine response after liquid lysine drench
Type: in vivo, bovines
details: cattle (bovine), oral, 60 g, Cow 1, 60-gram dose, 240 minutes, read-out: Cow 1, plasma lysine
property name: concentration at 240 min (ng/mL)
Unit ng/mL implied. Number only.

Query :: Given the compound `NCCCC[C@H](N)C(=O)O` , what is its reported concentration at 240 min?
Result :: 16100
